All values here come from the kinase profiling compilation of Christmann-Franck et al. (2016).

- System: RIPK2 (human) (UniProt O43353)
- Sequence (O43353 whole entry, looked up): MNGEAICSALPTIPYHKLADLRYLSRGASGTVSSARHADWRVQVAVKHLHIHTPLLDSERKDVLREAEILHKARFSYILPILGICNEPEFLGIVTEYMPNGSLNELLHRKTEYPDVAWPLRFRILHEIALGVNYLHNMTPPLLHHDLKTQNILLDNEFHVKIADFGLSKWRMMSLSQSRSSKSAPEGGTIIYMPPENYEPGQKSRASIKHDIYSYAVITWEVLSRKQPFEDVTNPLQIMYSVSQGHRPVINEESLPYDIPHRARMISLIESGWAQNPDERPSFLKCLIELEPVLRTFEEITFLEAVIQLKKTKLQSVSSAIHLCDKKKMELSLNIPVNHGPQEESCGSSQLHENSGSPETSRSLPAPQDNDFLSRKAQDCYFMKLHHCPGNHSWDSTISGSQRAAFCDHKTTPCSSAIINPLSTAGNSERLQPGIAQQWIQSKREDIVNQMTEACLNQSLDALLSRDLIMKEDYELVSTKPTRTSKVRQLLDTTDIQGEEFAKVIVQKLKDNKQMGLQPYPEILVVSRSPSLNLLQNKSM
- Experiment: KINOMEscan competition binding
- Condition: compound 10.0 µM
Measured kinase still bound, per cent of control values are reported for all entries that follow.
Please append the unit to your numeric answer.

Reference set, count: 5
CS(=O)(=O)N1CCN(Cc2cc3nc(-c4cccc5[nH]ncc45)nc(N4CCOCC4)c3s2)CC1: 100%
N#CCNC(=O)c1ccc(-c2ccnc(Nc3ccc(N4CCOCC4)cc3)n2)cc1: 88%
CN(C)C/C=C/C(=O)Nc1ccc(C(=O)Nc2cccc(Nc3nccc(-c4cccnc4)n3)c2)cc1: 84%
COc1cc(N2CCN(C)CC2)ccc1Nc1ncc2c(n1)N(C)c1ccccc1C(=O)N2C: 100%
CCN(CC)CCCCNc1ncc2c(n1)N(C)C(=O)N(c1c(Cl)c(OC)cc(OC)c1Cl)C2: 100%

Q. Requested field: kinase still bound, per cent of control. Item: `C=CC(=O)Nc1ccc(CN(C(=O)Nc2c(Cl)c(OC)cc(OC)c2Cl)c2cc(Nc3ccc(N4CCN(C)CC4)cc3)ncn2)cc1`
A. 100%
